Reference for the values: patent US20240342186A1

Listing: IC50 of selected compounds
Biological target: UniProtKB Q8N884
Test: Human cGAS enzyme assay (hcGAS IC50, in vitro), cGAMP formation by RapidFire MS
Format: biochemical
Conditions: biochemical (in vitro) cGAS inhibition
# unit: nM | format: bare number

# IC50 (compound: `CC#Cc1cnc(O[C@H]2C[C@@H](C(=O)O)N(c3nc(C(F)F)nc4c3oc3ccccc34)C2)c(N2CCOC3(COC3)[C@@H]2C)c1` ) is 6

---

Target: cGAS (Homo sapiens (Human))
Experiment: Human cGAS enzyme assay (hcGAS IC50, in vitro), cGAMP formation by RapidFire MS
Assay type: biochemical
Settings: biochemical (in vitro) cGAS inhibition
Quantity Measured: IC50 (nM)
# unit: nM | format: bare number

input_smiles=COc1csc(-c2cnc(O[C@H]3C[C@@H](C(=O)O)N(c4nc(C(F)(F)F)nc5c4oc4ccccc45)C3)c(N3CCOC4(COC4)[C@@H]3C)c2)n1 endpoint_result=14

Short answer on cGAS (Homo sapiens (Human)) for `Cc1cnc(-c2cnc(O[C@H]3C[C@@H](C(=O)O)N(c4nc(C(F)(F)F)nc5c4oc4ccccc45)C3)c(N3CCOC4(COC4)[C@@H]3C)c2)cn1` , IC50: 12

Short answer on cGAS (Homo sapiens (Human)) for `C#Cc1cnc(O[C@H]2C[C@@H](C(=O)O)N(c3nc(C(F)F)nc4c3oc3ccccc34)C2)c(N2CCCC[C@@H]2C)c1` , IC50: 4

---

Target: cGAS (Homo sapiens (Human), UniProt Q8N884)
Sequence (Q8N884 whole entry): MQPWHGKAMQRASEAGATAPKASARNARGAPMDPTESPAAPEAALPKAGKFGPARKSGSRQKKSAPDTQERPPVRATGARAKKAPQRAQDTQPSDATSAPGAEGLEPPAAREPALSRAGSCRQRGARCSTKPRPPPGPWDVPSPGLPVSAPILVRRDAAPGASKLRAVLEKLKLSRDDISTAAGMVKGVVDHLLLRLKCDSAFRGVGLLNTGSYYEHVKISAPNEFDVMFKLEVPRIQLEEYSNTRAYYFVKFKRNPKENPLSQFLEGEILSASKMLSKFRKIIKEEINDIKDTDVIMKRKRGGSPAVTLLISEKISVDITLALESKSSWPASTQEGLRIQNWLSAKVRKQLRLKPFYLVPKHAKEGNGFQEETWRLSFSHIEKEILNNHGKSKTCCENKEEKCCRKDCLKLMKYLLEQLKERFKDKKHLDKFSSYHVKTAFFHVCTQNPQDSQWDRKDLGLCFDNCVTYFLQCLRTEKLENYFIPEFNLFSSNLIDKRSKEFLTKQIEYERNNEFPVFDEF
Assay: Human cGAS enzyme assay (hcGAS IC50, in vitro), cGAMP formation by RapidFire MS
Assay type: biochemical
Conditions: biochemical (in vitro) cGAS inhibition
Quantity Measured: pIC50
Reminder that pIC50 means the negative base-10 logarithm of the concentration expressed in mol/L.

// below: answered molecules
input_smiles=C[C@@H]1N(c2cc(-c3cccc(N(C)C)c3)cnc2O[C@H]2C[C@@H](C(=O)O)N(c3nc(C(F)(F)F)nc4c3oc3ccccc34)C2)CCOC12COC2 endpoint_result=7.70
input_smiles=CNc1nccc(-c2cnc(O[C@H]3C[C@@H](C(=O)O)N(c4nc(C(F)F)nc5c4oc4ccccc45)C3)c(N3CCOC4(COC4)[C@@H]3C)c2)c1OC endpoint_result=8.10
input_smiles=C#Cc1cnc(O[C@H]2C[C@@H](C(=O)O)N(c3nc(C)nc4c3oc3ccccc34)C2)c(N2CCOC[C@@H]2C)c1 endpoint_result=8.40

# pIC50 (molecule: `C#Cc1cnc(O[C@H]2C[C@@H](C(=O)O)N(c3nc(C(F)F)nc4c3oc3ccccc34)C2)c(N2CCC3(C[C@@H]2C)N=N3)c1` ) is 8.70

# pIC50 (molecule: `C[C@@H]1N(c2cc(-c3cccc(C(N)=O)c3)cnc2O[C@H]2C[C@@H](C(=O)O)N(c3nc(C(F)F)nc4c3oc3ccccc34)C2)CCOC12COC2` ) is 8.22

# pIC50 (molecule: `C#Cc1cnc(O[C@H]2C[C@@H](C(=O)O)N(c3nc(C(F)(F)F)nc4c3oc3ccccc34)C2)c(N2CCOC[C@@H]2C)c1` ) is 8.52

---

Biological target: cGAS (Homo sapiens (Human))
Assay: Human cGAS enzyme assay (hcGAS IC50, in vitro), cGAMP formation by RapidFire MS
Format: biochemical
Conditions: biochemical (in vitro) cGAS inhibition
pIC50: −log10 of the molar value.
Param threshold (8) applies to pIC50; output met when value >= threshold, not met when value < threshold.

A selection of reference data follows.
input_smiles=C[C@@H]1N(c2cc(F)cnc2O[C@H]2C[C@@H](C(=O)O)N(c3nc(C(F)(F)F)nc4c3oc3ccccc34)C2)CCOC12COC2 label_class=met
input_smiles=C[C@@H]1N(c2cc(-c3cnn(C(F)(F)F)c3)cnc2O[C@H]2C[C@@H](C(=O)O)N(c3nc(C(F)(F)F)nc4c3oc3ccccc34)C2)CCOC12COC2 label_class="not met"
input_smiles=Cc1noc(C)c1-c1cnc(O[C@H]2C[C@@H](C(=O)O)N(c3nc(C(F)(F)F)nc4c3oc3ccccc34)C2)c(N2CCOC3(COC3)[C@@H]2C)c1 label_class="not met"
input_smiles=C#Cc1cnc(O[C@H]2C[C@@H](C(=O)O)N(c3nc(C(F)F)nc4c3oc3ccccc34)C2)c(N2CCOC[C@@H]2C)c1 label_class=met

Req: Would you say `C[C@H]1CN(C#N)CCN1c1cc(Br)cnc1O[C@H]1C[C@@H](C(=O)O)N(c2nc(C(F)F)nc3c2oc2ccccc23)C1` shows pIC50 at minimum 8?
Resp: met

---

Target: cGAS (Homo sapiens (Human), UniProt Q8N884)
Assay: Human cGAS enzyme assay (hcGAS IC50, in vitro), cGAMP formation by RapidFire MS
Assay type: biochemical
Settings: biochemical (in vitro) cGAS inhibition
Quantity Measured: IC50 (nM)
# unit: nM | format: bare number

// below: answered molecules
input_smiles=COc1c(-c2cnc(O[C@H]3C[C@@H](C(=O)O)N(c4nc(C(F)F)nc5c4oc4ccccc45)C3)c(N3CCOC4(COC4)[C@@H]3C)c2)ccnc1N(C)C assayed_target="cGAS (Homo sapiens (Human), UniProt Q8N884)" quantity_measured=IC50 endpoint_result=12
input_smiles=C#Cc1cnc(O[C@H]2C[C@@H](C(=O)O)N(c3nc(C)nc4c3oc3cc(Cl)ccc34)C2)c(N2CCOC3(COC3)[C@@H]2C)c1 assayed_target="cGAS (Homo sapiens (Human), UniProt Q8N884)" quantity_measured=IC50 endpoint_result=3
input_smiles=CC(=O)Nc1cc(-c2cnc(O[C@H]3C[C@@H](C(=O)O)N(c4nc(C(F)F)nc5c4oc4ccccc45)C3)c(N3CCOC4(COC4)[C@@H]3C)c2)ccn1 assayed_target="cGAS (Homo sapiens (Human), UniProt Q8N884)" quantity_measured=IC50 endpoint_result=10

Short answer on cGAS (Homo sapiens (Human), UniProt Q8N884) for `C[C@H]1COCCN1c1cc(-c2ccncc2F)cnc1O[C@H]1C[C@@H](C(=O)O)N(c2nc(C(F)(F)F)nc3c2oc2ccccc23)C1` , IC50: 7

Short answer on cGAS (Homo sapiens (Human), UniProt Q8N884) for `C[C@@H]1N(c2cc(Cl)cnc2O[C@H]2C[C@@H](C(=O)O)N(c3nc(C(F)F)nc4c3oc3ccccc34)C2)CCOC12COC2` , IC50: 2

Short answer on cGAS (Homo sapiens (Human), UniProt Q8N884) for `C[C@@H]1N(c2cc(-c3ccnc(C#N)c3)cnc2O[C@H]2C[C@@H](C(=O)O)N(c3nc(C(F)F)nc4c3oc3ccccc34)C2)CCOC12COC2` , IC50: 4

---

Listing: pIC50 of selected compounds
Molecular target: cGAS (Homo sapiens (Human))
Experiment: Human cGAS enzyme assay (hcGAS IC50, in vitro), cGAMP formation by RapidFire MS;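 also: enzyme activated by 45 bp dsDNA with GTP and ATP (30 µM each), 60 min compound pre-incubation then 90 min reaction, cGAMP relative to cyclic-di-GMP internal standard, 8-point dilutions up to 10 µM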
Assay type: biochemical
Settings: biochemical (in vitro) cGAS inhibition
Reminder that pIC50 means the negative base-10 logarithm of the concentration expressed in mol/L.

// below: answered compounds
input_smiles=C[C@@H]1N(c2cc(-c3cnn(C)n3)cnc2O[C@H]2C[C@@H](C(=O)O)N(c3nc(C(F)(F)F)nc4c3oc3ccccc34)C2)CCOC12COC2 endpoint_result=8.05
input_smiles=CC#Cc1cnc(O[C@H]2C[C@@H](C(=O)O)N(c3nc(C(F)(F)F)nc4c3oc3ccccc34)C2)c(N2CCOC3(COC3)[C@@H]2C)c1 endpoint_result=8.00
input_smiles=C#Cc1cnc(O[C@H]2C[C@@H](C(=O)O)N(c3nc(C(F)(F)F)nc4c3oc3ccccc34)C2)c(N2CCCC3(COC3)[C@@H]2C)c1 endpoint_result=8.30
input_smiles=C[C@H]1COCCN1c1cc(Br)cnc1O[C@H]1C[C@@H](C(=O)O)N(c2nc(C(F)F)nc3c2oc2ccccc23)C1 endpoint_result=8.52
input_smiles=C[C@@H]1N(c2cc(-c3cn(C)nn3)cnc2O[C@H]2C[C@@H](C(=O)O)N(c3nc(C(F)(F)F)nc4c3oc3ccccc34)C2)CCOC12COC2 endpoint_result=8.30

# pIC50 (compound: `C[C@@H]1N(c2cc(-c3ccc(C#N)nc3)cnc2O[C@H]2C[C@@H](C(=O)O)N(c3nc(C(F)(F)F)nc4c3oc3ccccc34)C2)CCOC12COC2` ) is 8.10

# pIC50 (compound: `C#Cc1cnc(O[C@H]2C[C@@H](C(=O)O)N(c3nc(C(F)(F)Cl)nc4c3oc3ccccc34)C2)c(N2CCOC3(COC3)[C@@H]2C)c1` ) is 8.52

# pIC50 (compound: `COc1ncccc1-c1cnc(O[C@H]2C[C@@H](C(=O)O)N(c3nc(C(F)(F)F)nc4c3oc3ccccc34)C2)c(N2CCOC3(COC3)[C@@H]2C)c1` ) is 7.96

# pIC50 (compound: `C#Cc1cnc(O[C@H]2C[C@@H](C(=O)O)N(c3nc(C(F)(F)C(F)(F)F)nc4c3oc3ccccc34)C2)c(N2CCOC3(COC3)[C@@H]2C)c1` ) is 7.77

# pIC50 (compound: `C[C@@H]1N(c2cc(-c3cnn(C(F)F)c3)cnc2O[C@H]2C[C@@H](C(=O)O)N(c3nc(C(F)(F)F)nc4c3oc3ccccc34)C2)CCOC12COC2` ) is 7.96

# pIC50 (compound: `C#Cc1cnc(O[C@H]2C[C@@H](C(=O)O)N(c3nc(Cl)nc4c3oc3ccccc34)C2)c(N2CCOC[C@@H]2C)c1` ) is 8.40

# pIC50 (compound: `C[C@@H]1N(c2cccnc2O[C@H]2C[C@@H](C(=O)O)N(c3nc(C(F)F)nc4c3oc3ccccc34)C2)CCOC12COC2` ) is 8.70
